experiment: chemical genetic growth profiling, strain panel (AID 1159580);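 also: tested at 20 µM; growth read once vehicle control cultures reached saturation at 30 °C; 1 = growth at the plate median or of vehicle wells; lower values mean less growth of the strain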; conditions: S. cerevisiae deletion strains, growth OD, locus YGR135W, strain pre9
Screen size: about 5,500 compounds; about 2,000 (36%) were called active. Inconclusive results (about 18%) are left out. Rule as the data show it: active = normalized growth mostly below about 0.91 (no sharp cut-off); inconclusive = no clear call, values can overlap the other calls; inactive = mostly above about 0.92. The list shows a part of the results.
Log the outcome using a class from active, inactive

> print(dat)
                                   compound  discrete.label
1       O=[N+]([O-])c1cc([As](=O)(O)O)ccc1O          active
2  C1CCN2CC3CC(CN4CCCCC34)C2C1 (stereo not drawn)          active
3  O=[N+]([O-])c1cc(O)c(O)c([N+](=O)[O-])c1        inactive
4  O=C1CCCC2C3CC(CN12)[C@@H]1CCCCN1C3 (stereo partly drawn)        inactive
5                     CCCc1occc(=O)c1/C=C/O        inactive

Data request: Please state the recorded outcome for this compound: CC1(C)CC2C1(O)CCC1(C)C=CC(O)C21CO (stereo not drawn)
Data returned: inactive

Data request: Please state the recorded outcome for this compound: CCCC(C)C1(CC)C(=O)N=C(S)NC1=O (stereo not drawn)
Data returned: active

Data request: Please state the recorded outcome for this compound: CC(C)N(C(=O)SCC(Cl)=C(Cl)Cl)C(C)C
Data returned: inactive

Data request: Please state the recorded outcome for this compound: C1CCN2C[C@@H]3C[C@H](CN4CCCC[C@@H]34)[C@H]2C1
Data returned: inactive

Data request: Please state the recorded outcome for this compound: Cc1occc(=O)c1O
Data returned: inactive

Data request: Please state the recorded outcome for this compound: O[N+]1=CC=CCC1=S.On1ccccc1=S.[Zn]
Data returned: active

Data request: Please state the recorded outcome for this compound: CCCC(C)C1(CC)C(=O)NC(=O)NC1=O (stereo not drawn)
Data returned: inactive

Data request: Please state the recorded outcome for this compound: O=[N+]([O-])c1ccc(O)c([N+](=O)[O-])c1
Data returned: active

----------
Item-by-item account of normalized growth
assay: chemical genetic growth profiling, strain panel (AID 1159580); conditions: S. cerevisiae deletion strains, growth OD, locus YBR229C, strain ROT2, stronger effect = lower value
Screen size: about 5,500 compounds; about 2,000 (36%) were called active. Another 18% or so got no clear call; they are omitted. The list shows a part of the results.
Write the number on its own, no unit after it.

The cases that follow already have their normalized growth on record.
> print(dat)
                                   compound  observed
1                 OC[C@@H]1CCCN2CCCC[C@H]12     0.998
2  O=C1O[C@H](C(O)CO)C(O)=C1O (some centres not stated)     0.991
3         O[N+]1=CC=CCC1=S.On1ccccc1=S.[Zn]     0.052
4                       O=C(O)CCC(=O)C(=O)O      1.01

Data request: Form field: reported normalized growth of COc1c2c(cc3c1OCO3)CCN(C)C2
Data returned: 1.01

Data request: Form field: reported normalized growth of C=C(C)[C@H]1CC=C(C(=O)O)CC1
Data returned: 1.01

Data request: Form field: reported normalized growth of CC(C)(C)NS(=O)(=O)NC(C)(C)C
Data returned: 1

----------
assay: chemical genetic growth profiling, strain panel (AID 1159580); conditions: S. cerevisiae deletion strains, growth OD, locus YAL021C, strain ccr4, stronger effect = lower value
In all, about 5,500 compounds went through this assay and about 2,000 (36%) were called active. Roughly 18% stayed inconclusive and do not appear here. Some of the results follow.
property_measured: normalized growth
Write the number on its own, no unit after it.

Data request: Form field: reported normalized growth of O=C(O)C1=CCNCC1
Data returned: 0.979

Data request: Form field: reported normalized growth of Nc1ccc(C(=O)NCC(=O)O)cc1
Data returned: 1.02

Data request: Form field: reported normalized growth of OC[C@@H]1CCCN2CCCC[C@H]12
Data returned: 1.05

Data request: Form field: reported normalized growth of O=C1CCCC2C3CC(CN12)[C@@H]1CCCCN1C3 (stereo partly specified)
Data returned: 0.988

Data request: Form field: reported normalized growth of C1CCN2CC3CC(CN4CCCCC34)C2C1 (stereo unspecified)
Data returned: 1

----------
experiment: chemical genetic growth profiling, strain panel (AID 1159580); conditions: S. cerevisiae deletion strains, growth OD, locus YGR040W, strain KSS1
The campaign covered roughly 5,500 compounds. About 2,000 (36%) were called active. Inconclusive results (about 18%) are left out. Cut-off read from the data, not from the text of the source: active = normalized growth mostly below about 0.91 (no sharp cut-off); inconclusive = no clear call, values can overlap the other calls; inactive = mostly above about 0.92. This is one part of the list.
Log the outcome using a class from y (active), n (inactive)

# count of solved cases: 8
> print(dat)
                            smiles.notation  discrete.label
1       C/C(=C\c1ccc2c(c1)OCO2)[N+](=O)[O-]               y
2          C=CCOc1ccc(/C=C/[N+](=O)[O-])cc1               y
3         FC(F)(F)c1cccc(NC(=S)Nc2ccccc2)c1               n
4        CC(=O)Nc1ccc(/C=C/[N+](=O)[O-])cc1               n
5  O=C(NCCSCc1cccc(C(F)(F)F)c1)Nc1cccc(C(F)(F)F)c1               n
6  Fc1cccc(F)c1NC(=S)Nc1cc(C(F)(F)F)cc(C(F)(F)F)c1               n
7  O=C(NCCSCc1cccc(C(F)(F)F)c1)c1ccc(Cl)cc1               n
8              O=[N+]([O-])/C=C/c1ccc(F)cc1               y

Data request: Please state the recorded outcome for this compound: COc1ccc(C(=O)CSC2=NCCc3ccccc32)cc1
Data returned: n

Data request: Please state the recorded outcome for this compound: N#CC(C#N)=C/C=C(/Sc1ccc(F)c(Cl)c1)c1ccc(Cl)cc1
Data returned: n

Data request: Please state the recorded outcome for this compound: Cc1cc(Br)ccc1-n1c(Sc2c([N+](=O)[O-])cc(C(F)(F)F)cc2[N+](=O)[O-])nc2ccccc2c1=O
Data returned: n

----------
experiment: chemical genetic growth profiling, strain panel (AID 1159580);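 also: tested at 20 µM; growth read once vehicle control cultures reached saturation at 30 °C; 1 = growth at the plate median or of vehicle wells; lower values mean less growth of the strain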; details: S. cerevisiae deletion strains, growth OD, locus YIL066C, strain RNR3, stronger effect = lower value
The whole screen tested about 5,500 compounds, of which about 2,000 (36%) were called active. About 18% were inconclusive and are not listed. This is one part of the list.
Item-by-item account of normalized growth
Write the number on its own, no unit after it.

> print(dat)
                                   compound  property.measured  observed
1  C=CC(C1=CC(=O)C(OC)=CC1=O)c1ccc(O)cc1 (stereo unspecified)  normalized growth      0.92

Turning now to a further compound:
Data request: Form field: reported normalized growth of C=CC(C1=CC(=O)C=CC1=O)c1ccccc1 (stereo unspecified)
Data returned: 0.875

----------
assay: chemical genetic growth profiling, strain panel (AID 1159580);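 also: tested at 20 µM; growth read once vehicle control cultures reached saturation at 30 °C; 1 = growth at the plate median or of vehicle wells; lower values mean less growth of the strain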; conditions: S. cerevisiae deletion strains, growth OD, locus YCL016C, strain dcc1, stronger effect = lower value
The campaign covered roughly 5,500 compounds. About 2,000 (36%) were called active. Roughly 18% stayed inconclusive and do not appear here. The list shows a part of the results.
Item-by-item account of normalized growth
Write the number on its own, no unit after it.

Data request: Form field: reported normalized growth of Cc1c(O)c(O)cc2c1CC=C1[C@@]2(C)CC[C@@]2(C)C3C[C@](C)(C(=O)O)CC[C@]3(C)CC[C@]12C (stereo not given in full)
Data returned: 0.571

Data request: Form field: reported normalized growth of C=CC(C1=CC(=O)C(OC)=CC1=O)c1ccc(OC)cc1 (stereo not given)
Data returned: 0.81

Data request: Form field: reported normalized growth of O=C(O)c1ccccc1Nc1cccc(C(F)(F)F)c1
Data returned: 0.87

Data request: Form field: reported normalized growth of C=CC(C)(O)CC/C=C(\C)CCC=C(C)C (stereo not given)
Data returned: 0.965

Data request: Form field: reported normalized growth of C=CC(C1=CC(=O)C(OC)=CC1=O)c1ccccc1 (stereo not given)
Data returned: 0.845

----------
assay: chemical genetic growth profiling, strain panel (AID 1159580);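 also: tested at 20 µM; growth read once vehicle control cultures reached saturation at 30 °C; 1 = growth at the plate median or of vehicle wells; lower values mean less growth of the strain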; conditions: S. cerevisiae deletion strains, growth OD, locus YDR195W, strain ref2
In all, about 5,500 compounds went through this assay and about 2,000 (36%) were called active. Another 18% or so got no clear call; they are omitted. Cut-off read from the data, not from the text of the source: active = normalized growth mostly below about 0.91 (no sharp cut-off); inconclusive = no clear call, values can overlap the other calls; inactive = mostly above about 0.92. The list shows a part of the results.
Log the outcome using a class from 1.0 (active), 0.0 (inactive)

# count of solved cases: 4
> print(dat)
                                   molecule  discrete.label
1                Cc1ccc2c(Cl)cc(Cl)c(O)c2n1             0.0
2  O=c1[nH]c(=O)n(C2C[C@@H](O)[C@@H](CO)O2)cc1F (stereo partly drawn)             0.0
3           C[C@H](N)[C@H](O)c1ccc(O)c(O)c1             0.0
4  O=C1C=CC2=C3c4cc(O)c(O)cc4CC3(O)COC2=C1O (stereo not drawn)             0.0

Data request: Please state the recorded outcome for this molecule: Cc1ccc(/C(=C\CN2CCCC2)c2ccccn2)cc1
Data returned: 0.0

Data request: Please state the recorded outcome for this molecule: CCCCC1=NC2(CCCC2)C(=O)N1Cc1ccc(-c2ccccc2-c2nn[nH]n2)cc1
Data returned: 0.0

Data request: Please state the recorded outcome for this molecule: N[C@@H](Cc1ccc(O)c(O)c1)C(=O)O
Data returned: 0.0

Data request: Please state the recorded outcome for this molecule: O=C(O)/C=C/C=C/c1ccccc1
Data returned: 0.0

Data request: Please state the recorded outcome for this molecule: CC(=O)/C(=C\c1ccccc1)CC(=O)O
Data returned: 0.0

Data request: Please state the recorded outcome for this molecule: Nc1ncnc2c1ncn2C1O[C@H](COP(=O)(O)O)[C@@H](O)[C@H]1O (stereo partly drawn)
Data returned: 0.0

Data request: Please state the recorded outcome for this molecule: C/C=C/c1ccc2c(c1)OCO2
Data returned: 0.0

Data request: Please state the recorded outcome for this molecule: CCC(Cc1c(I)cc(I)c(N)c1I)C(=O)O (stereo not drawn)
Data returned: 0.0

Data request: Please state the recorded outcome for this molecule: CCN(CC)CCNC(=O)c1cc(S(C)(=O)=O)ccc1OC
Data returned: 0.0

Data request: Please state the recorded outcome for this molecule: Oc1c(Cl)cc(Cl)c2cccnc12
Data returned: 1.0

Data request: Please state the recorded outcome for this molecule: Nc1ncnc2c1ncn2[C@@H]1O[C@H](CO)[C@@H](O)[C@H]1O
Data returned: 0.0

Data request: Please state the recorded outcome for this molecule: O=C(O)CF
Data returned: 0.0

Data request: Please state the recorded outcome for this molecule: COC(=O)C[C@H]1C(C)(C)C(=O)[C@@H]2CC3=C4CC(=O)O[C@@H](c5ccoc5)[C@]4(C)CCC3[C@@]1(C)C2=O (stereo partly drawn)
Data returned: 0.0

Data request: Please state the recorded outcome for this molecule: COc1cccc(/C=C/C(=O)O)c1C(C)C
Data returned: 0.0

Data request: Please state the recorded outcome for this molecule: CC(=O)Nc1ccc(S(=O)(=O)c2ccc(NC(C)=O)cc2)cc1
Data returned: 0.0

Data request: Please state the recorded outcome for this molecule: CC(=O)O[C@@H]1CC2C(C)(C)C=CC(=O)[C@]2(C)C2CC[C@@]3(C)[C@H](c4ccoc4)OC(=O)C4OC43[C@@]21C (stereo partly drawn)
Data returned: 0.0

Data request: Please state the recorded outcome for this molecule: CC1(C)C(=O)C=C[C@@]2(C)C1=C(O)C(=O)[C@]1(C)C2CC[C@@]2(C)[C@H](c3ccoc3)C[C@H]3O[C@]321 (stereo partly drawn)
Data returned: 1.0

Data request: Please state the recorded outcome for this molecule: O=C1C=CC2=C3c4cc(O)c(O)cc4C[C@@]3(O)COC2=C1
Data returned: 0.0

Data request: Please state the recorded outcome for this molecule: CC(C)(C)NC[C@@H](O)COc1nsnc1N1CCOCC1
Data returned: 0.0
